Origin of measurements: ChEMBL document CHEMBL4382258

Test: Kinetic aqueous solubility of the compound by chemiluminescence nitrogen detection analysis
Conditions: buffer
Would you mind telling me the reported solubility kinetic of each entry?
Give bare numbers, in µM.

# count of solved cases: 3
N#Cc1ccc(S(=O)(=O)[C@H]2CN(S(=O)(=O)c3ccc(C#N)cc3Cl)C[C@@]2(O)CO)cc1    400
N#Cc1ccc(S(=O)(=O)N2C[C@H](S(=O)(=O)c3ccc(Cl)cn3)[C@@](O)(CN)C2)c(Cl)c1    500
N#Cc1ccc(S(=O)(=O)[C@H]2CN(S(=O)(=O)c3ccc(Cl)cc3C#N)C[C@@]2(O)CO)cc1    380

Proceeding to the next molecule to report its solubility kinetic.
# return recorded solubility kinetic for input N#Cc1ccc(S(=O)(=O)N2C[C@H](S(=O)(=O)c3ccc(Cl)cn3)[C@](O)(CN)C2)c(Cl)c1
500

###

Task for the reader: assign each of the following compounds its reported remaining at 0.5 h.
Assay: Metabolic stability in rat liver microsomes assessed as parent compound remaining after 30 mins
Type: ADME, Microsome
Conditions: read-out: Stability
Numbers only, in %.

N#Cc1ccc(S(=O)(=O)[C@H]2CN(S(=O)(=O)c3ccc(Cl)cc3Cl)C[C@@]2(O)CO)cc1    89

Please examine the following record next.
Please report the measured remaining at 0.5 h for N#Cc1ccc(S(=O)(=O)[C@H]2CN(S(=O)(=O)c3ccc(Cl)cc3Cl)C[C@@]2(O)CO)cc1F
46

###

Test: AUC (0 to t) in rat at 98 mg/kg, po
Type: ADME, organism-based
Settings: in vivo
Measured property: AUC(0-t) (ng·h/mL)
Give bare numbers, in ng·h/mL.

Fill in AUC(0-t) for record N#Cc1ccc(S(=O)(=O)N2C[C@H](S(=O)(=O)c3ccc(Cl)cc3)[C@](O)(CO)C2)c(Cl)c1
40000

###

Assay: Clearance in Sprague-Dawley rat at 1 mg/kg, iv administered as 30 mins infusion by LC/MS/MS analysis
Format: ADME, organism-based
Conditions: in vivo
# note: boundary value 40 mL/min/kg maps to n; clearance below it maps to y

Completed entries (count: 6):
N#Cc1ccc(S(=O)(=O)N2C[C@H](S(=O)(=O)c3ccc(Cl)cn3)[C@@](O)(CN)C2)c(Cl)c1    y
N#Cc1ccc(S(=O)(=O)[C@H]2CN(S(=O)(=O)c3ccc(C#N)cc3Cl)C[C@@]2(O)CO)cc1    y
N#Cc1ccc(S(=O)(=O)N2C[C@H](S(=O)(=O)c3ccc(Cl)cn3)[C@](O)(CO)C2)c(Cl)c1    y
N#Cc1ccc(S(=O)(=O)[C@H]2CN(S(=O)(=O)c3ccc(Cl)cc3Cl)C[C@@]2(O)CO)cc1F    y
N#Cc1ccc(S(=O)(=O)N2C[C@H](S(=O)(=O)c3ccc(Cl)cc3)[C@](O)(CN)C2)c(Cl)c1    y
N#Cc1ccc(S(=O)(=O)N2C[C@H](S(=O)(=O)c3ccc(Cl)cc3)[C@](O)(CO)C2)c(C(F)(F)F)n1    n

Threshold test, clearance < 40 mL/min/kg: N#Cc1ccc(S(=O)(=O)N2C[C@H](S(=O)(=O)c3ccc(Cl)cc3)[C@](O)(CO)C2)c(Cl)c1
n

Is the reported clearance for N#Cc1ccc(S(=O)(=O)N2C[C@H](S(=O)(=O)c3ccc(Cl)cc3)[C@](O)(CO)C2)cn1 strictly below 40 mL/min/kg?
y

###

Test: Clearance adjusted for unbound fraction in Sprague-Dawley rat at 1 mg/kg, iv administered as 30 mins infusion by LC/MS/MS analysis
Assay type: ADME, organism-based
Details: in vivo, 0.5 h
Measured property: CL free (mL/min/kg)
Answers are plain numbers, in mL/min/kg.

N#Cc1ccc(S(=O)(=O)[C@H]2CN(S(=O)(=O)c3ccc(C#N)cc3Cl)C[C@@]2(O)CO)cc1    4
N#Cc1ccc(S(=O)(=O)N2C[C@H](S(=O)(=O)c3ccc(Cl)cc3)[C@](O)(CO)C2)cn1    1.2

List the reported CL free of each compound below.
1. N#Cc1ccc(O[C@H]2CN(S(=O)(=O)c3ccc(Cl)cc3Cl)C[C@@]2(O)CO)cc1
2. N#Cc1ccc(S(=O)(=O)N2C[C@H](S(=O)(=O)c3ccc(Cl)cc3)[C@](O)(CO)C2)c(C(F)(F)F)n1
3. N#Cc1ccc(S(=O)(=O)[C@H]2CN(S(=O)(=O)c3ccc(Cl)cc3Cl)C[C@@]2(O)CO)cc1F
4. N#Cc1ccc(S(=O)(=O)N2C[C@H](S(=O)(=O)c3ccc(Cl)cc3)[C@](O)(CO)C2)c(Cl)c1

15
66
14
12

For the compound N#Cc1ccc(S(=O)(=O)N2C[C@H](S(=O)(=O)c3ccc(Cl)cn3)[C@@](O)(CN)C2)c(Cl)c1 , give its reported CL free.
1.7

###

Target: Transient receptor potential cation channel subfamily M member 2 (Homo sapiens, UniProt O94759)
Sequence (O94759 whole entry): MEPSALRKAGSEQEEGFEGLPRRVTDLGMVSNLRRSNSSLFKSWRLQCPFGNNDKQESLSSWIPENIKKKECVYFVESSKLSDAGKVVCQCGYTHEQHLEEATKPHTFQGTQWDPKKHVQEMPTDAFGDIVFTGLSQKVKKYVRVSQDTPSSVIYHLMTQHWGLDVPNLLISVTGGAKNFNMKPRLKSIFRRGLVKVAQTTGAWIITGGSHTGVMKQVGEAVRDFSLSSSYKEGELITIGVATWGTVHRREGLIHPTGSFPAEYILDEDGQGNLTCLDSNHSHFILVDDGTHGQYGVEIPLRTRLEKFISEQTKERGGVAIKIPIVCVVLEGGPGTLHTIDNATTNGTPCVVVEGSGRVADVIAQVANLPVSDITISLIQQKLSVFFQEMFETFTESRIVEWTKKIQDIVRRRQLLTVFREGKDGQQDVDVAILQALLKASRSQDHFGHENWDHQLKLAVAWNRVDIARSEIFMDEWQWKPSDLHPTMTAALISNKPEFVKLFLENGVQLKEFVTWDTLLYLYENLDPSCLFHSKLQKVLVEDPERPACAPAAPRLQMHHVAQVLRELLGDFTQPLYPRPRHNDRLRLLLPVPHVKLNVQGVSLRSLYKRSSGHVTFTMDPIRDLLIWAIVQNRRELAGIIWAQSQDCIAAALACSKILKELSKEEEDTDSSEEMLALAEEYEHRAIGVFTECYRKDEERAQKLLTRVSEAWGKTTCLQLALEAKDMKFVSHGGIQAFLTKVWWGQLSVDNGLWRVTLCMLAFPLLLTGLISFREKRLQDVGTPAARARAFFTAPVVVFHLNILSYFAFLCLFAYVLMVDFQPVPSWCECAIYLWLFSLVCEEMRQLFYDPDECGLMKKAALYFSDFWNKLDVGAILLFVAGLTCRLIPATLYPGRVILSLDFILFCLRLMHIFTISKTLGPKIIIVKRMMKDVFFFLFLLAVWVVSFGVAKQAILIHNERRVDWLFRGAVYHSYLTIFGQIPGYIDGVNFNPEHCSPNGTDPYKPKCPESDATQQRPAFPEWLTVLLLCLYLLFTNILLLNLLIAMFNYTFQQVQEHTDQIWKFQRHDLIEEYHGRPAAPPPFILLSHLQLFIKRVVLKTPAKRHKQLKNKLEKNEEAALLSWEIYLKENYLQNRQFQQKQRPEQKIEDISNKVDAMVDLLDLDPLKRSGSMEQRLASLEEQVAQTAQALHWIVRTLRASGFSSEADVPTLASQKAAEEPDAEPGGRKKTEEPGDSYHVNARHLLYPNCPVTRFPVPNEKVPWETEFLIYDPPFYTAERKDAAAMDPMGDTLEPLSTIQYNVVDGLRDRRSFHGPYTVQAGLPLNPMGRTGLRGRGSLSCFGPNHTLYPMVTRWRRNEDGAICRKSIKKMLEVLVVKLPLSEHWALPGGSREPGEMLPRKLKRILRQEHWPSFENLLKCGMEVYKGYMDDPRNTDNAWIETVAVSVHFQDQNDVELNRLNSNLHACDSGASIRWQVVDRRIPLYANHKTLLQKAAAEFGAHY
Measured property: IC50

Provide only the value of recorded IC50 for N#Cc1ccc(S(=O)(=O)N2C[C@H](S(=O)(=O)c3ccc(Cl)cc3)[C@](O)(CO)C2)c(Cl)c1
> 30 µM

###

Assay: Clearance adjusted for unbound fraction in Sprague-Dawley rat at 1 mg/kg, iv administered as 30 mins infusion by LC/MS/MS analysis
Type: ADME, organism-based
Conditions: in vivo, 0.5 h
Decision: CL free beneath 9 mL/min/kg gives y; CL free meeting or exceeding 9 mL/min/kg gives n.

Use the examples below as a reference point.
N#Cc1ccc(S(=O)(=O)N2C[C@H](S(=O)(=O)c3ccc(Cl)cn3)[C@](O)(CO)C2)c(Cl)c1    n
N#Cc1ccc(S(=O)(=O)N2C[C@H](S(=O)(=O)c3ccc(Cl)cc3)[C@](O)(CN)C2)c(Cl)c1    y
N#Cc1ccc(S(=O)(=O)N2C[C@H](S(=O)(=O)c3ccc(Cl)cn3)[C@](O)(CN)C2)c(Cl)c1    y
N#Cc1ccc(S(=O)(=O)N2C[C@H](S(=N)(=O)c3ccc(Cl)cc3)[C@](O)(CO)C2)c(Cl)c1 (stereo partly drawn)    y
N#Cc1ccc(S(=O)(=O)[C@H]2CN(S(=O)(=O)c3ccc(Cl)cc3Cl)C[C@@H]2O)cc1    n

Field: next compound
Confirm or reject: CL free of N#Cc1ccc(S(=O)(=O)[C@H]2CN(S(=O)(=O)c3ccc(Cl)cc3C#N)C[C@@]2(O)CO)cc1 lies strictly below 9 mL/min/kg
y

###

Biological target: Transient receptor potential cation channel subfamily V member 4 (Rattus norvegicus, UniProt Q9ERZ8)
Sequence (Q9ERZ8 whole entry): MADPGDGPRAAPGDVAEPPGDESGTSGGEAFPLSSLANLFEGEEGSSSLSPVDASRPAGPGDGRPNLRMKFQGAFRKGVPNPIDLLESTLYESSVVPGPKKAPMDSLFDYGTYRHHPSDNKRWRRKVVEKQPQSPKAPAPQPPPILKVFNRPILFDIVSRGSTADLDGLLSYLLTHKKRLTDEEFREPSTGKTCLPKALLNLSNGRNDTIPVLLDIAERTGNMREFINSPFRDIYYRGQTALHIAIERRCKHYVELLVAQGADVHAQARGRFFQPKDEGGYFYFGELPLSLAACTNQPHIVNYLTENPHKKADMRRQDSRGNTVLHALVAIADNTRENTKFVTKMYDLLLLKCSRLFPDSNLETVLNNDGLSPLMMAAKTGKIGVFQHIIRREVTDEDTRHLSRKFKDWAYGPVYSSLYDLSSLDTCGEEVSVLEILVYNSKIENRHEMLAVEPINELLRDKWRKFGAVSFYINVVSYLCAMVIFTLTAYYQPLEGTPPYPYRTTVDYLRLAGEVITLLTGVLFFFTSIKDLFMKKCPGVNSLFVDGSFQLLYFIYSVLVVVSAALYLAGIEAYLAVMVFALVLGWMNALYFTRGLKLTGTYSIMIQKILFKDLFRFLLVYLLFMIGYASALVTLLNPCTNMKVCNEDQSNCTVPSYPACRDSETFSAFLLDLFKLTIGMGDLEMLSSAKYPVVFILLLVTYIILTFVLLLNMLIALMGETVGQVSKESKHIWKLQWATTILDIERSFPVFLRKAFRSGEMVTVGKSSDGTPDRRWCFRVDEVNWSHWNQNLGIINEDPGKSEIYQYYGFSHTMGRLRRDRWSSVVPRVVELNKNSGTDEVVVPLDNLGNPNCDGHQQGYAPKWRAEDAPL
Assay: Antagonist activity at rat TRPV4 expressed in BHK/AC9 cells assessed as inhibition of GSK634775-induced […] pre-incubated for 10 mins followed by agonist addition by Fluo-4-AM dye-based FLIPR assay
I'd appreciate it if you could supply IC50 values for the items below.
Numbers only, in nM.

N#Cc1ccc(S(=O)(=O)N2C[C@H](S(=O)(=O)c3ccc(Cl)cc3)[C@](O)(CO)C2)c(Cl)c1    4

Please indicate IC50 recorded for N#Cc1ccc(S(=O)(=O)N2C[C@H](S(=O)(=O)c3ccc(Cl)cn3)[C@@](O)(CN)C2)c(Cl)c1
1

###

Molecular target: Transient receptor potential cation channel subfamily V member 4 (Homo sapiens)
Sequence (Q9HBA0 whole entry): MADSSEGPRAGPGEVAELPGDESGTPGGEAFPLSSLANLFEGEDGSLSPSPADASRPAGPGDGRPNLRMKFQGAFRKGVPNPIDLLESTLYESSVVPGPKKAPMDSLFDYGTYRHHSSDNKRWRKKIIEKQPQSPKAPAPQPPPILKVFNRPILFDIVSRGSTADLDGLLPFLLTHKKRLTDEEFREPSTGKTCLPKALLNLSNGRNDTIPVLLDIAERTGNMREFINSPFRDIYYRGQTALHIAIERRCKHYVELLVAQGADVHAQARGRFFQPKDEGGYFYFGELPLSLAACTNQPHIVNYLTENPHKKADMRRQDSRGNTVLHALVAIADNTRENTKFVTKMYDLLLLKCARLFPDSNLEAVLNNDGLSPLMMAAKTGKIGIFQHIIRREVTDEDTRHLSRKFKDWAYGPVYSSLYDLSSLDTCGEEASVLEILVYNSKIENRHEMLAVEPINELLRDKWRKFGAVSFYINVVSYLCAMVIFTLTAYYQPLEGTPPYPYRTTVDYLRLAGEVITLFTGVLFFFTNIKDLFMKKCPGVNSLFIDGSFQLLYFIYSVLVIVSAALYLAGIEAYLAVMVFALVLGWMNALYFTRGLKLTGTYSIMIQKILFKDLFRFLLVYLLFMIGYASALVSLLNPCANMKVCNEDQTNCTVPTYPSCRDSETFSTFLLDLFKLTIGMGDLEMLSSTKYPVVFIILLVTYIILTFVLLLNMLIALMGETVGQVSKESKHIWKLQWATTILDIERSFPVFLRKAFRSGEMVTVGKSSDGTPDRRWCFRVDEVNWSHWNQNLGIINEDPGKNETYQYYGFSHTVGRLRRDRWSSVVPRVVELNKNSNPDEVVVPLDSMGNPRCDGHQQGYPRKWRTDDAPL
Assay: Antagonist activity at TRPV4 (unknown origin)
Measured property: IC50 (nM)
Answers are plain numbers, in nM.

Annotate the compound CC(C)(C)c1cc(N2C[C@@]3(CCC[C@](C)(Cn4cnc5ccc(C#N)cc54)C3)OC2=O)no1 with its measured IC50.
7.5

###

Test: Fraction unbound in Sprague-Dawley rat heart failure-induced pulmonary edema model at 0.09 to 0.78 mg/kg, iv bolus loading dose followed by 0.07 to 0.6 ug/kg/min, iv continuous infusion dose for 60 mins
Assay type: ADME, organism-based
Details: in vivo
Measured property: fraction unbound at 1 h
Answers are plain numbers.

Give me measured fraction unbound at 1 h, please, for this compound: N#Cc1ccc(S(=O)(=O)N2C[C@H](S(=O)(=O)c3ccc(Cl)cn3)[C@@](O)(CN)C2)c(Cl)c1
0.014

###

Molecular target: UniProt:Q7Z2W7
Sequence (Q7Z2W7 whole entry): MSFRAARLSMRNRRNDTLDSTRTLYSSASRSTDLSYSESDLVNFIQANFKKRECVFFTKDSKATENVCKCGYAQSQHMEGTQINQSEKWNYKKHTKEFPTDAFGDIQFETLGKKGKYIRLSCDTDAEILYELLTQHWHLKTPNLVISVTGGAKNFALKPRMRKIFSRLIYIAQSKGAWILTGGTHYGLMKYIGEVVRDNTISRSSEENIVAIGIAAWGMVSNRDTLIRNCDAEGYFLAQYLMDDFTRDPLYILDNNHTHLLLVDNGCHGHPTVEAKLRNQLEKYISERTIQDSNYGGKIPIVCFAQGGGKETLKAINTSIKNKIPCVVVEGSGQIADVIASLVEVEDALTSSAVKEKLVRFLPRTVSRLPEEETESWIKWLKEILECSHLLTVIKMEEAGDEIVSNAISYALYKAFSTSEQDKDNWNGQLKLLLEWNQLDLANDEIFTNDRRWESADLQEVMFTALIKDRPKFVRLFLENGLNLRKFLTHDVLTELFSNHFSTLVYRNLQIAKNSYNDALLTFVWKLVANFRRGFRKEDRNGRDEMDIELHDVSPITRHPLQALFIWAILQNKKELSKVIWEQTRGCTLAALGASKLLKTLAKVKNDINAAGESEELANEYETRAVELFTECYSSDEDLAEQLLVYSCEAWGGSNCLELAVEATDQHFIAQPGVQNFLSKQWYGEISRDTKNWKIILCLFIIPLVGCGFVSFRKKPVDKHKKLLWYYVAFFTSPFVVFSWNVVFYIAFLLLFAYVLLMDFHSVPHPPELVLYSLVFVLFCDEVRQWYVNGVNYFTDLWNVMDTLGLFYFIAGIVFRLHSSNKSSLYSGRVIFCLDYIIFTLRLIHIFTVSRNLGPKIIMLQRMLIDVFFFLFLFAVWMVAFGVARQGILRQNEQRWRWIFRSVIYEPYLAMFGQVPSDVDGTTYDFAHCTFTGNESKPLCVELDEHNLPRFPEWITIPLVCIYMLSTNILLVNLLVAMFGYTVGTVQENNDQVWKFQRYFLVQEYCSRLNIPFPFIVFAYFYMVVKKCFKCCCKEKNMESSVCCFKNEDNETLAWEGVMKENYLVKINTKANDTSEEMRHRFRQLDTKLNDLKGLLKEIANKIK
Measured property: IC50

Please look at this compound and report its IC50: N#Cc1ccc(S(=O)(=O)N2C[C@H](S(=O)(=O)c3ccc(Cl)cc3)[C@](O)(CO)C2)c(Cl)c1
> 30 µM

###

Give measured MRT for each item. Keep answers brief.
Assay: MRT in Sprague-Dawley rat at 1 mg/kg, iv or 2 mg/kg, po by LC/MS/MS analysis
Format: ADME, organism-based
Conditions: in vivo
Answers are plain numbers, in min.

N#Cc1ccc(S(=O)(=O)N2C[C@H](S(=O)(=O)c3ccc(Cl)cc3)[C@](O)(CO)C2)c(Cl)c1    96
N#Cc1ccc(S(=O)(=O)N2C[C@H](S(=O)(=O)c3ccc(Cl)cn3)[C@](O)(CN)C2)c(Cl)c1    114

Could you report MRT for every entry in the following list?
1. N#Cc1ccc(S(=O)(=O)N2C[C@H](S(=O)(=O)c3ccc(Cl)cc3)[C@](O)(CO)C2)cn1
2. N#Cc1ccc(S(=O)(=O)N2C[C@H](S(=N)(=O)c3ccc(Cl)cc3)[C@](O)(CO)C2)c(Cl)c1 (stereo partly drawn)
3. N#Cc1ccc(S(=O)(=O)[C@H]2CN(S(=O)(=O)c3ccc(Cl)cc3Cl)C[C@@]2(O)CO)cc1F
4. N#Cc1ccc(S(=N)(=O)N2C[C@H](S(=O)(=O)c3ccc(Cl)cc3)[C@](O)(CO)C2)c(Cl)c1 (stereo partly drawn)
5. N#Cc1ccc(S(=O)(=O)[C@H]2CN(S(=O)(=O)c3ccc(Cl)cc3C#N)C[C@@]2(O)CO)cc1
6. N#Cc1ccc(O[C@H]2CN(S(=O)(=O)c3ccc(Cl)cc3Cl)C[C@@]2(O)CO)cc1

180
60
48
54
30
36
